# Set-up: species or system rats
# CONDITION PARAMETERS: rat, in vivo, sc, 230 ug/kg;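 further: blood drawn at alternating time points, with three animals in each cohort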
MEASURED METRIC: Cmax

Consider the worked cases shown below.
MOLECULE: OXM-CTP-CTP: oxyntomodulin with two CTPs in tandem on the carboxy terminus, SEQ ID NO: 21, expressed in CHO cells (protein, OXM-CTP-CTP) LEDMATGSRTSLLLAFGLLCLPWLQEGSAHSQGTFTSDYSKYLDSRRAQDFVQWLMNTKRNRNNIASSSSKAPPPSLPSPSRLPGPSDTPILPQSSSSKAPPPSLPSPSRLPGPSDTPILPQ
Cmax: 50.90 ng/mL
--
MOLECULE: CTP-OXM-CTP-CTP: oxyntomodulin with one CTP on the amino terminus and two on the carboxy terminus, SEQ ID NO: 15 (protein, CTP-OXM-CTP-CTP) MATGSRTSLLLAFGLLCLPWLQEGSASSSSKAPPPSLPSPSRLPGPSDTPILPQHSQGTFTSDYSKYLDSRRAQDFVQWLMNTKRNRNNIASSSSKAPPPSLPSPSRLPGPSDTPILPQSSSSKAPPPSLPSPSRLPGPSDTPILPQ
Cmax: 30.18 ng/mL
--
MOLECULE: CTP-CTP-OXM: oxyntomodulin with two CTPs on the amino terminus, SEQ ID NO: 23 (protein, CTPx2-OXM) MATGSRTSLLLAFGLLCLPWLQEGSASSSSKAPPPSLPSPSRLPGPSDTPILPQSSSSKAPPPSLPSPSRLPGPSDTPILPQHSQGTFTSDYSKYLDSRRAQDFVQWLMNTKRNRNNIARSGCGRGTLGLMGLPFTARFP
Cmax: 27.77 ng/mL

get_value(item= CTP-OXM-CTP: oxyntomodulin with one CTP on the amino terminus and one on the carboxy terminus, SEQ ID NO: 9 (protein, CTP-OXM-CTP) MATGSRTSLLLAFGLLCLPWLQEGSASSSSKAPPPSLPSPSRLPGPSDTPILPQHSQGTFTSDYSKYLDSRRAQDFVQWLMNTKRNRNNIASSSSKAPPPSLPSPSRLPGPSDTPILPQ , readout=Cmax) returns 31.11 ng/mL
